System: SK-MEL-5
Assay: NCI tumour cell line growth inhibition, 48 h
Active and inactive are the calls of the source. Rule as the data show it: active = GI50 up to about 1.1 µM and inactive = higher.

| compound | GI50 |
| --- | --- |
| CC(=O)NC(CCCCNC(=O)OC(C)(C)C)C(=O)O (stereo not given) | > 100 µM (inactive) |
| CC(=O)OCC1OC(SC2=N/C(=C\c3cc4c(=O)c5ccccc5sc4s3)C(=O)N2c2ccccc2)C(OC(C)=O)C(OC(C)=O)C1OC(C)=O (stereo not given) | > 100 µM (inactive) |
| CCCCOP(=O)(OCCCC)C(NS(=O)(=O)c1ccccc1)(C(=O)OCC)C(F)(F)F (stereo not given) | 18.1 µM (inactive) |
| CC(=O)Oc1ccc2[nH]c3c(C)c4cccc-4ccc3c2c1 | 1.83 µM (inactive) |
| Clc1ccc(CCNC2(c3cc4ccccc4s3)CCCCC2)cc1Cl | 15.6 µM (inactive) |
| CCOC(=O)C(NC(=O)c1cccc(Cl)c1)(Nc1ccc(S(=O)(=O)Nc2cc(C)nc(C)n2)cc1)C(F)(F)F (stereo not given) | > 100 µM (inactive) |
| COC(=O)[C@@H]1[C@H](OC(C)=O)CCC2[C@@]3(C[C@@H](c4ccoc4)O[C@@H]3OC)[C@H](C)CC[C@]21C(=O)OC (stereo not given in full) | > 25 µM (inactive) |
| O=C(CC1(O)C(=O)Nc2ccccc21)c1ccco1 (stereo not given) | > 100 µM (inactive) |
| Cc1cc(Cl)ccc1N1C(=O)C(=O)C(c2nc3ccccc3s2)/C(=N\NC(=O)c2ccccc2O)C1=O (stereo not given) | > 100 µM (inactive) |
| CCCOC(=O)C1CCC(=O)N1C(=O)C(Cl)Cl (stereo not given) | > 100 µM (inactive) |

* * *

Test system: MOLT-4
Experiment: NCI tumour cell line growth inhibition, 48 h
Calls of active or inactive are those of the source. Cut-off read from the data, not from the text of the source: active = GI50 up to about 1.1 µM and inactive = higher.
Catalogue of GI50 values

| molecule | GI50 |
| --- | --- |
| CC(C)(C)[Si](C)(C)OCC1OC(n2ccc(=O)[nH]c2=O)C(O[Si](C)(C)C(C)(C)C)[C@]12O[C@@H]2CO (stereo not given in full) | 8.3 µM (inactive) |
| CC(C)(CO)NC(=O)c1cccs1 | > 100 µM (inactive) |
| CCOC(=O)/C=C(/N=P(c1ccccc1)(c1ccccc1)c1ccccc1)C(F)(F)F | > 10 µM (inactive) |
| COc1cccc2c1N[S@](=O)S2 | 42.1 µM (inactive) |
| COc1ccc2ccc([Se]c3ccc4ccc(OC)cc4c3)cc2c1 | 63.2 µM (inactive) |
| CCc1ccccc1NC(=O)C(C#N)C1=C(Cl)C(=O)c2ccccc2C1=O (stereo not given) | 8.73 µM (inactive) |
| O=C(O)CNC(=O)c1ccc(-c2ccccc2)cc1 | > 100 µM (inactive) |
| [O-][n+]1onc2c1/C(=N/O)CCC2 | > 100 µM (inactive) |
| CN(C)/C=N/n1c2ccccc2c2ccccc21 | 69.8 µM (inactive) |
| Clc1ccc(C2SCc3nc4ccccc4n32)cc1 (stereo not given) | 18 µM (inactive) |

* * *

Catalogue of GI50 values
System: NCI/ADR-RES
Test: NCI tumour cell line growth inhibition, 48 h
The source made the active and inactive calls. No stated cut-off is given here; in the data, active = GI50 up to about 1.1 µM and inactive = higher.

| compound | system | GI50 |
| --- | --- | --- |
| O=C1c2ccccc2C(=O)N1CCc1ncc[nH]1 | NCI/ADR-RES | > 100 µM (inactive) |
| O=C1CS(=O)(=O)C(c2cccc(Oc3ccccc3)c2)N1C1CC1 (stereo unspecified) | NCI/ADR-RES | 28.1 µM (inactive) |
| CSc1nc2ccccc2c(=O)n1-c1cccc(C)c1 | NCI/ADR-RES | 48.4 µM (inactive) |
| C#CC(=O)OCC#CCOC(=O)C#C | NCI/ADR-RES | 24.9 µM (inactive) |
| N#Cc1nc(CCCCCN2C(=O)c3ccccc3C2=O)oc1N | NCI/ADR-RES | > 100 µM (inactive) |
| CC(=O)Oc1ccc2[nH]c3c(C)c4cccc-4ccc3c2c1 | NCI/ADR-RES | 2.28 µM (inactive) |
| Nc1cccc2cc(Cl)cnc12 | NCI/ADR-RES | > 100 µM (inactive) |
| Oc1cc(O)c2c(c1)OC(c1ccc(O)c(O)c1)C(OC1(c3cc(O)c(O)c(O)c3)Oc3cc(O)cc(O)c3C(O)C1O)C2 (stereo unspecified) | NCI/ADR-RES | 30.2 µM (inactive) |
| Cc1nc2ccccc2n1CCc1nc2ccccc2s1 | NCI/ADR-RES | 40.6 µM (inactive) |
| CC1CC(C)CC(NC2=NCCO2)C1 (stereo unspecified) | NCI/ADR-RES | > 100 µM (inactive) |
| COc1ccc2c(c1)[C@@]13CCN4CC5=CCO[C@H]6CC(=O)N2[C@H]1[C@H]6[C@H]5C[C@H]43 | NCI/ADR-RES | 47.2 µM (inactive) |

* * *

Tested on: NCI-H23
Test: NCI tumour cell line growth inhibition, 48 h
The source made the active and inactive calls. Cut-off read from the data, not from the text of the source: active = GI50 up to about 1.1 µM and inactive = higher.
quantity.name: GI50

| compound | quantity.name | value.measured |
| --- | --- | --- |
| CCNC(=O)C(C)C1CCC2(C)C=CC(=O)C(C)=C2C1O (stereo unspecified) | GI50 | > 100 µM (inactive) |
| CC1CC(C)CC(NC2=NCCO2)C1 (stereo unspecified) | GI50 | > 100 µM (inactive) |
| CSc1nc(SC)c2ncn(C3CC(Oc4ccc(C)cc4)C(COc4ccc(C)cc4)O3)c2n1 (stereo unspecified) | GI50 | > 100 µM (inactive) |
| CN(C)/C=N/n1c2ccccc2c2ccccc21 | GI50 | > 100 µM (inactive) |
| CCCCCCC(CCl)c1sc(-c2csc(CCNC(=O)OC(C)(C)C)n2)nc1C(=O)OC (stereo unspecified) | GI50 | 15.3 µM (inactive) |
| COC(=O)c1cc(OCc2cc(OCc3ccc(Br)cc3)cc(OCc3ccc(Br)cc3)c2)cc(OCc2cc(OCc3ccc(Br)cc3)cc(OCc3ccc(Br)cc3)c2)c1 | GI50 | > 100 µM (inactive) |
| Clc1ccccc1/C=c1\nc(-c2ccccc2)n2c1nc1ccccc12 | GI50 | 17.8 µM (inactive) |
| COC(=O)[C@@H]1C=C[C@H](OC2OC(COC(C)=O)C(OC(C)=O)C(OC(C)=O)C2OC(C)=O)n2c(=O)c3ccccc3c(=O)n21 (stereo partly specified) | GI50 | 18.6 µM (inactive) |
| CNc1ccc(C(=O)CC(O)CCC(C)C2OC(=O)CC(O)CC(=O)CC(O)CC(O)CC(O)CC(O)CC3(O)CC(O)C(C(=O)NCCN(C)C)C(CC(OC4OC(C)C(O)C(NC(=O)CN5CCN(C)CC5)C4O)\C=C/C=C\C=C/C=C/C=C/C=C\C=C/C2C)O3)cc1 (stereo unspecified) | GI50 | 4.54 µM (inactive) |
| CSC1=C(SC)C(=O)c2cn(C)c(=O)cc2C1=O | GI50 | 4.57 µM (inactive) |
| CC1(SCC(N)C(=O)O)CC(=O)NC1=O (stereo unspecified) | GI50 | > 100 µM (inactive) |
| COc1ccccc1N/C(SCc1ccccc1)=C(/C(Cl)=C(Cl)Cl)[N+](=O)[O-] | GI50 | 16.1 µM (inactive) |
| Nc1ncnc2c1nnn2C1OC(CO)C(O)C1O (stereo unspecified) | GI50 | 7.82 µM (inactive) |
| Oc1cc(O)c2c(c1)OC(c1ccc(O)c(O)c1)C(OC1(c3cc(O)c(O)c(O)c3)Oc3cc(O)cc(O)c3C(O)C1O)C2 (stereo unspecified) | GI50 | 20.9 µM (inactive) |
| COc1ccc(CNc2nc(NCc3ccc(OC)cc3)nc(NC(C)C)n2)cc1 | GI50 | 5.21 µM (inactive) |
| CCOC(=O)c1nc2ccc(C(F)(F)F)cc2nc1Nc1ccc(OC)cc1 | GI50 | 49.1 µM (inactive) |
| COc1ccc(Br)c(CCCCC(=O)O)c1 | GI50 | > 100 µM (inactive) |
| Cc1ccc(-c2cc(=O)c3cc(C)c(C)c(C(=O)O)c3o2)cc1[N+](=O)[O-] | GI50 | > 100 µM (inactive) |
| O=C(O)OC12CCCCCC1C(=O)C1CCCCC12 (stereo unspecified) | GI50 | > 100 µM (inactive) |
| CO/C(=N\N=C\c1ccc(Cl)cc1Cl)c1ccncc1 | GI50 | > 10 µM (inactive) |
| NNC(=O)CCSc1ccccc1 | GI50 | > 100 µM (inactive) |

* * *

Tested on: SF-268
Assay: NCI tumour cell line growth inhibition, 48 h
Activity calls are given as the source filed them. Cut-off read from the data, not from the text of the source: active = GI50 up to about 1.1 µM and inactive = higher.

| compound | GI50 |
| --- | --- |
| CCc1cccc(C)c1NC(=O)CCc1nnc2s/c(=C\c3cccc4ccccc34)c(=O)n12 | > 100 µM (inactive) |
| CC(=O)O[C@H]1CCC2[C@@H]3CCC4Nc5oncc5C[C@]4(C)C3CC[C@@]21C (some centres undefined) | > 10 µM (inactive) |
| N#Cc1c(-c2ccc([N+](=O)[O-])cc2)cc(-c2ccc(Nc3ccnc4cc(C(F)(F)F)ccc34)cc2)[nH]c1=O | > 100 µM (inactive) |
| NC1(C(=O)OCc2ccccc2)CCCC1 | 15.1 µM (inactive) |
| c1cc(C[S+]2CCCC2)oc1C[S+]1CCCC1 | > 100 µM (inactive) |
| CCOC(=O)C12C(C(=O)OC)=C(C)N(NC(=O)Nc3ccccc3)C1(N)N(NC(=O)Nc1ccccc1)C(C)=C2C(=O)OC (centres undefined) | 31.3 µM (inactive) |
| O=C1c2ccccc2C(=O)N1CCc1ncc[nH]1 | > 100 µM (inactive) |
| COC1CCC(CO)OO1 (centres undefined) | 35.8 µM (inactive) |
| O=C(NCCCCCCNC(=O)n1cc(F)c(=O)[nH]c1=O)NCCCOCCOCCOCCOCCOCCOCCOCCOCCOCCOCCOCCOCCOCCOCCOCCOCCOCCOCCOCCOCCOCCCNC(=O)C(O)C(O)C(O)C(O)CO (centres undefined) | 55.5 µM (inactive) |
